Sourced from patent US10370364B1

assay: Pharmacokinetics in male SD rats (oral and i.v., various formulations); assay type: in vivo, rat; conditions: male, SD, rat, plasma, po, 10 mg/kg, 10 mpk po, Formulation Example 3; NMP/PEG400/Solutol HS/water vehicle
MEASURE_NAME: AUC(0-inf) (ng·h/mL)
Report as a plain number; the unit ng·h/mL is understood.

Dear colleague, I am looking for the recorded AUC(0-inf) of the following compound: COc1ccc(-c2cc(=O)c3c(O)c(OC)c(OCCN4CCNC(=O)C4)cc3o2)cc1OC [Compound 1]
155

====

molecular target: CYP3A4 (Homo sapiens, UniProt P08684); test: CYP450 inhibition, CYP3A4; conditions: 3A4-midazolam IC50, substrate midazolam
Sequence (P08684 whole entry): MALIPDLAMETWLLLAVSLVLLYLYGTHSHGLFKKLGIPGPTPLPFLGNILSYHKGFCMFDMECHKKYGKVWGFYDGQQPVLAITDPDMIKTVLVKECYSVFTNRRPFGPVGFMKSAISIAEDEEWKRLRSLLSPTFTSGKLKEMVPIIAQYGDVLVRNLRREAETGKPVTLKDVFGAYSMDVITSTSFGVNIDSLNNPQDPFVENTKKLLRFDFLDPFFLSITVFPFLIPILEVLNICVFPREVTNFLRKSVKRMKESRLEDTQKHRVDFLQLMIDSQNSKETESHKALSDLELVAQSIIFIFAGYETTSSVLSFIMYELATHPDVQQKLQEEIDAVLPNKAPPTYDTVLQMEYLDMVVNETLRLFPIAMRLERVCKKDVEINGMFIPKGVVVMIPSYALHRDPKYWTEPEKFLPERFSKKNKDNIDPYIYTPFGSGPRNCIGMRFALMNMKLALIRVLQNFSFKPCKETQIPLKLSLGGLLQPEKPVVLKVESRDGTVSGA
MEASURE_NAME: IC50

Dear colleague, I am looking for the recorded IC50 of the following compound: COc1ccc(-c2cc(=O)c3c(O)c(OC)c(OCCN4CCNC(=O)C4)cc3o2)cc1OC [Compound 1]
> 50 µM

====

experiment: Pharmacokinetics in male SD rats (oral and i.v., various formulations); assay type: in vivo, rat; details: male, SD, plasma, 200 mg/kg; rat, 200 mpk po, Formulation Example 2
MEASURE_NAME: MRT inf (h)
Report as a plain number; the unit h is understood.

Dear colleague, I am looking for the recorded MRT inf of the following compound: COc1ccc(-c2cc(=O)c3c(O)c(OC)c(OCCN4CCNC(=O)C4)cc3o2)cc1OC
1.7

====

assay: Pharmacokinetics in male SD rats (oral and i.v., various formulations); assay type: in vivo, rat; details: male, SD, rat, plasma, po, 10 mg/kg, 10 mpk po, Formulation Example 3; NMP/PEG400/Solutol HS/water vehicle
MEASURE_NAME: Tmax (min)
Report as a plain number; the unit min is understood.

Dear colleague, I am looking for the recorded Tmax of the following compound: COc1ccc(-c2cc(=O)c3c(O)c(OC)c(OCCN4CCNC(=O)C4)cc3o2)cc1OC
15

====

test: physchem; conditions: pH 7.4, aqueous buffer, thermodynamic from solid
MEASURE_NAME: solubility at 16 h (µg/mL)
Report as a plain number; the unit µg/mL is understood.

Dear colleague, I am looking for the recorded solubility at 16 h of the following compound: COc1ccc(-c2cc(=O)c3c(O)c(OC)c(OCCN4CCNC(=O)C4)cc3o2)cc1OC [Compound 1]
9.59

====

test: Pharmacokinetics in male SD rats (oral and i.v., various formulations); assay type: in vivo, rat; conditions: male, SD, rat, plasma, po, 10 mg/kg, 10 mpk po, Formulation Example 5; in 30% HPCD aqueous solution
MEASURE_NAME: Tmax (h)
Report as a plain number; the unit h is understood.

Dear colleague, I am looking for the recorded Tmax of the following compound: COc1ccc(-c2cc(=O)c3c(O)c(OC)c(OCCN4CCNC(=O)C4)cc3o2)cc1OC [Compound 1]
1.3

====

assay: Pharmacokinetics in male SD rats (oral and i.v., various formulations); type: in vivo, rat; conditions: male, SD, rat, plasma, po, 10 mg/kg, 10 mpk po, Formulation Example 4
MEASURE_NAME: bioavailability

Dear colleague, I am looking for the recorded bioavailability of the following compound: COc1ccc(-c2cc(=O)c3c(O)c(OC)c(OCCN4CCNC(=O)C4)cc3o2)cc1OC
~3%

====

experiment: Pharmacokinetics in male SD rats (oral and i.v., various formulations); assay type: in vivo, rat; conditions: male, SD, rat, plasma, po, Formulation Example 2, dose not given
MEASURE_NAME: bioavailability (%)
Report as a plain number; the unit % is understood.

Dear colleague, I am looking for the recorded bioavailability of the following molecule: COc1ccc(-c2cc(=O)c3c(O)c(OC)c(OCCN4CCNC(=O)C4)cc3o2)cc1OC
1.4
